- methodDescription: Pharmacokinetics in CD-1 mice (plasma concentrations, PK parameters)
- Type: in vivo
- measurementSetup: CD-1, mouse, plasma, po, 30 mg/kg, mouse (CD1) po 30 mg/kg; 2 h; individual Mouse 4-6; read-out: Concentration
measuredMetric: concentration at 2 h (ng/mL)
A number alone suffices; assume ng/mL.

Lookup: Provide concentration at 2 h value for the following molecule: O=C1CCC(N2C(=O)c3cccc(NCCOCCOCCNCc4ccc(-n5cc(NC(=O)c6coc(-c7ccnc(NCC8CC8)c7)n6)c(C(F)F)n5)cc4)c3C2=O)C(=O)N1 (stereo not shown) [I-210]
Found: 177

====

- methodDescription: Pharmacokinetics in CD-1 mice (plasma concentrations, PK parameters)
- Format: in vivo
- measurementSetup: CD-1, mouse, plasma, sc, 30 mg/kg, mouse (CD1) sc 30 mg/kg; 8 h; individual Mouse 7-9
measuredMetric: concentration at 8 h (ng/mL)
A number alone suffices; assume ng/mL.

Lookup: Provide concentration at 8 h value for the following compound: O=C1CCC(N2C(=O)c3cccc(NCCOCCOCCNCc4ccc(-n5cc(NC(=O)c6coc(-c7ccnc(NCC8CC8)c7)n6)c(C(F)F)n5)cc4)c3C2=O)C(=O)N1 (stereo not shown)
Found: 39.6

====

- methodDescription: Pharmacokinetics in Sprague Dawley rats (plasma and brain concentrations, PK parameters)
- Format: in vivo
- measurementSetup: Sprague-Dawley, rat, plasma, iv, 3 mg/kg, Sprague Dawley rat, iv 3 mg/kg, plasma, 2 h, Rat 1; read-out: Concentration Rat 1
measuredMetric: concentration at 2 h (ng/mL)
A number alone suffices; assume ng/mL.

Lookup: Provide concentration at 2 h value for the following compound: O=C1CCC(N2C(=O)c3cccc(NCCOCCOCCNCc4ccc(-n5cc(NC(=O)c6coc(-c7ccnc(NCC8CC8)c7)n6)c(C(F)F)n5)cc4)c3C2=O)C(=O)N1 (stereo not shown)
Found: 141

====

- studySystem: IRAK4 (Homo sapiens)
- Sequence (Q9NWZ3 whole entry): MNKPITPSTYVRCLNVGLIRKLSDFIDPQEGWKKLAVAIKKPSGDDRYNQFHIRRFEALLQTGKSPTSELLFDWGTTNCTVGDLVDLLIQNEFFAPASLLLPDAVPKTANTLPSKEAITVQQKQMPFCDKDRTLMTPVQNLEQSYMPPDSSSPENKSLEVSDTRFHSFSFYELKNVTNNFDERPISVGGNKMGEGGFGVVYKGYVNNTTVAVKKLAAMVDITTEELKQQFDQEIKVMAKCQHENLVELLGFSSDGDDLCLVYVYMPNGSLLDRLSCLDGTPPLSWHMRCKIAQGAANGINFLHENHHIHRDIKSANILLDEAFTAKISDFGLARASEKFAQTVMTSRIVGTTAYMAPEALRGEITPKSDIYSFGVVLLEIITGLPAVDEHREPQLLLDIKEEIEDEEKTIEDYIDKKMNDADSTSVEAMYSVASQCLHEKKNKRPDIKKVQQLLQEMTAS
- methodDescription: OCI-LY-10 degradation assay (western blot, % IRAK4 degraded after 4 hours)
- Format: cell-based
- Parameters: endogenous in cells; host or cells: OCI-LY10
- measurementSetup: OCI-LY10 cells, 4 hours, 0.1 uM compound

compound	OCI-LY10 % IRAK4 Degradation (0.1 uM)
O=C1CCC(N2C(=O)c3cccc(NCCNCCOCCNC(=O)c4ccc(-n5cc(NC(=O)c6coc(-c7ccnc(NCC8CC8)c7)n6)c(C(F)(F)F)n5)cc4)c3C2=O)C(=O)N1 (stereo not drawn) [I-222]	A (>50% degradation)
Cn1c(=O)n(C2CCC(=O)NC2=O)c2cccc(CCCOCCOCCNC(=O)c3ccc(-n4cc(NC(=O)c5coc(-c6ccnc(NCC(F)(F)F)c6)n5)c(C(N)=O)n4)cc3)c21 (stereo not drawn) [I-249]	A (>50% degradation)

====

- methodDescription: Pharmacokinetics in Sprague Dawley rats (plasma and brain concentrations, PK parameters)
- Format: in vivo
- measurementSetup: Sprague Dawley, rat, plasma, po, 10 mg/kg, Sprague Dawley rat, po 10 mg/kg, plasma, 0.5 h, Rat 4; read-out: Concentration Rat 4
measuredMetric: concentration at 0.5 h (ng/mL)
A number alone suffices; assume ng/mL.

Lookup: Provide concentration at 0.5 h value for the following compound: O=C1CCC(N2C(=O)c3cccc(NCCOCCOCCNCc4ccc(-n5cc(NC(=O)c6coc(-c7ccnc(NCC8CC8)c7)n6)c(C(F)F)n5)cc4)c3C2=O)C(=O)N1 (stereo not shown)
Found: 0.914
